Biological target: T1, Recombinant human EGFR-Fc (aa 1-645 of the extracellular domain of human EGFR fused to human Fc) (human, UniProt P00533 25-645)
T1 construct: range 1-645; bought from R&D Systems; also called EGFR645-Fc; EGFR-Fc (HER-1); not shown: human Fc
Test: SPR Biacore, EGFR645-Fc
Readout Type: Kd (nM)
# output: bare number, implied unit nM

INSERT INTO assay_data (binder, readout_type, val) VALUES
  ('I1-GS10-E5(S91C) pegylated (designed binder, PEG on Cys at position 91 of E5 (position of SEQ ID NO: 1), also called I1-GS10-E5(S91C)(8)) MGVSDVPRDLEVVAATPTSLLISWSARLKVARYYRITYGETGGNSPVQEFTVPKNVYTATISGLKPGVDYTITVYAVTRFRDYQPISINYRTEIEKGSGSGSGSGSGSGSGSGSGSVSDVPRDLEVVAATPTSLLISWWAPVDRYQYYRITYGETGGNSPVQEFTVPRDVYTATISGLKPGVDYTITVYAVTDYKPHADGPHTYHESPICINYRTEHHHHHH', 'Kd', 17.9);

Problem: Could you please provide reported Kd for I1-GS10-E5-GSGC pegylated (designed binder, PEG on the Cys of the GSGC tail of E5, alternative clone of I1-GS10-E5 pegylated; also called I1-GS10-E5-GSGC(4)) MGVSDVPRDLEVVAATPTSLLISWSARLKVARYYRITYGETGGNSPVQEFTVPKNVYTATISGLKPGVDYTITVYAVTRFRDYQPISINYRTEIEKGSGSGSGSGSGSGSGSGSGSVSDVPRDLEVVAATPTSLLISWWAPVDRYQYYRITYGETGGNSPVQEFTVPRDVYTATISGLKPGVDYTITVYAVTDYKPHADGPHTYHESPISINYRTEGSGCHHHHHH ? Thanks!
Result: 1.4

Problem: Could you please provide reported Kd for I1(S91C)-GS10-E5 pegylated (designed binder, PEG on Cys at position 91 of I1 (position of SEQ ID NO: 1), also called I1(S91C)-GS10-E5(7)) MGVSDVPRDLEVVAATPTSLLISWSARLKVARYYRITYGETGGNSPVQEFTVPKNVYTATISGLKPGVDYTITVYAVTRFRDYQPICINYRTEIEKGSGSGSGSGSGSGSGSGSGSVSDVPRDLEVVAATPTSLLISWWAPVDRYQYYRITYGETGGNSPVQEFTVPRDVYTATISGLKPGVDYTITVYAVTDYKPHADGPHTYHESPISINYRTEHHHHHH ? Thanks!
Result: 17
